- measurement.target: lactate dehydrogenase A (LDHA) (Homo sapiens)
- Construct: his-tag LDHA human recombinant protein (Cat. No. 71081, BPS Bioscience)
- method.summary: SPR (Biacore T200, LDHA immobilized on CM5 chip, berberine […])

{"columns": ["smiles.representation", "Kd / µM"],
 "data": [
  ["COc1ccc2cc3[n+](cc2c1OC)CCc1cc2c(cc1-3)OCO2", 4.59]
]}
